- Test Method Notes: in vitro
Measured Endpoint: CC50

compound="CCOC(=O)c1c(CSc2ccccc2)n(C)c2cc(Br)c(O)c(CN(C)C)c12.Cl.O [arbidol]" reading="18.7 to 89.7 µM"

====

- Test system: TBEV
- Test Method Notes: microbe, parasite or virus in culture
- Condition Description: Tick-borne encephalitis virus, Vero, 48 h
pEC50: −log10 of the molar value.
Measured Endpoint: pEC50

compound="CCOC(=O)c1c(CSc2ccccc2)n(C)c2cc(Br)c(O)c(CN(C)C)c12.Cl.O [arbidol]" reading=4.73

====

- Test system: ZIKV
- Test Method Notes: microbe, parasite or virus in culture
- Condition Description: Zika virus, Vero, 48 h
pEC50: −log10 of the molar value.
Measured Endpoint: pEC50

molecule="CCOC(=O)c1c(CSc2ccccc2)n(C)c2cc(Br)c(O)c(CN(C)C)c12.Cl.O [arbidol]" measured_endpoint=pEC50 reading=4.92
